Value source: patent US7365174B2

Listing of recorded MIC by entry.
# Tested on: Streptococcus pneumoniae DP1 TypeI
# Assay: Antibacterial activity test (agar dilution MIC)
# Assay type: cell-based
# Experimental parameters: DP1TYPEI; test bacterium B = Streptococcus pneumoniae DP1 TypeI; blood agar medium, 37° C., about 20 hours; read-out: Minimum inhibitory concentration (MIC)
Experimental readout: MIC (µg/mL)

[[record]]
compound = "CCC(=O)O[C@@H]1CC(=O)O[C@@H](C/C=C/c2cccc(-c3cccnc3)c2)CCCN(C)C[C@H](O)[C@H](C)C[C@H](CC=O)[C@H](O[C@@H]2OC(C)[C@@H](O[C@H]3CC(C)(OC(C)=O)[C@@H](OC(=O)CC)C(C)O3)C(N(C)C)C2O)[C@H]1OC (some centres unmarked)"
measured = 0.03

[[record]]
compound = "CCC(=O)O[C@@H]1CC(=O)O[C@@H](C/C=C/c2ccc3ccccc3c2)CCCN(C)C[C@H](O)[C@H](C)C[C@H](CC=O)[C@H](O[C@@H]2OC(C)[C@@H](O[C@H]3CC(C)(O)[C@@H](OC(=O)CC)C(C)O3)C(N(C)C)C2O)[C@H]1OC (some centres unmarked)"
measured = 0.06


---

Listing of recorded MIC by entry.
# System: Staphylococcus aureus 209P JC-1
# Assay: Antibacterial activity test (agar dilution MIC)
# Assay type: cell-based
# Experimental parameters: test bacterium A = Staphylococcus aureus 209P JC-1; blood agar medium, 37° C., about 20 hours; read-out: Minimum inhibitory concentration (MIC)
Experimental readout: MIC (µg/mL)

[[record]]
compound = "CCC(=O)O[C@@H]1CC(=O)OCCC(/C=C/Cc2ccnc3ccccc23)CN(C)C[C@H](O)[C@H](C)C[C@H](CC=O)[C@H](O[C@@H]2OC(C)[C@@H](O[C@H]3CC(C)(O)[C@@H](OC(=O)CC)C(C)O3)C(N(C)C)C2O)[C@H]1OC (single isomer, unassigned)"
assayed_system = "Staphylococcus aureus 209P JC-1"
measured = 0.13

[[record]]
compound = "CCC(=O)O[C@@H]1CC(=O)O[C@@H](C/C=C/c2cnc3ccccc3c2)CCCN(C)C[C@H](O)[C@H](C)C[C@H](CC=O)[C@H](O[C@@H]2OC(C)[C@@H](O[C@H]3CC(C)(OC(C)=O)[C@@H](OC(=O)CC)C(C)O3)C(N(C)C)C2O)[C@H]1OC (stereo partly drawn)"
assayed_system = "Staphylococcus aureus 209P JC-1"
measured = 0.25

[[record]]
compound = "CCC(=O)OC1C(C)O[C@@H](O[C@@H]2C(C)O[C@@H](O[C@H]3[C@@H](CC=O)C[C@@H](C)[C@@H](O)CN(CCCCc4ccccc4)CCCNC(=O)C[C@@H](OC(=O)CC)[C@@H]3OC)C(O)C2N(C)C)CC1(C)OC(C)=O (stereo partly drawn)"
assayed_system = "Staphylococcus aureus 209P JC-1"
measured = 0.25

